# Target System: HGFA (Homo sapiens)
# Construct: His6 tag (N); seven amino acid spacer and seven amino acid TEV cleavage site (N); Honey Bee melittin signal peptide (N); made in house; host or cells: High 5 insect cells (baculovirus; virus raised in Sf9)
# Measurement Notes: Fluorescent kinetic enzyme inhibitor assay of HGFA
# Type: biochemical
# Test Parameters: Table 4.2; Boc-QLR-AMC substrate; read-out: HGFA Ki
Readout Label: Ki
Form field: result (number plus unit)

stdin: Lab request: please report Ki under test system HGFA (Homo sapiens) for CC(=O)N[C@@H](CCCNC(=N)N)C(=O)N[C@@H](CCC(N)=O)C(=O)N[C@@H](CC(C)C)C(=O)N[C@@H](CCCNC(=N)N)C(=O)c1nccs1 [Compound 5e, Ac-RQLR(SEQ ID NO: 6)-kt]
stdout: 60 nM

stdin: # value lookup — system HGFA (Homo sapiens), readout Ki, item N=C(N)c1ccc2cc(OC(=O)c3ccc(N=C(N)N)cc3)ccc2c1 [Nafamostat, reference compound]
stdout: 25 nM

stdin: // map CC(=O)N[C@@H](CCCCN)C(=O)N[C@@H](Cc1c[nH]cn1)C(=O)N[C@@H](CC(C)C)C(=O)N[C@@H](CCCNC(=N)N)C(=O)c1nccs1 [Compound 5a, Ac-KHLR(SEQ ID NO: 2)-kt] to recorded Ki (system: HGFA (Homo sapiens))
stdout: 96 nM

* * *

So I've got a bunch of molecules here, and I need their Ki values.
# Target System: HGFA (Homo sapiens, UniProt Q04756)
# Construct: His6 tag (N); seven amino acid spacer and seven amino acid TEV cleavage site (N); Honey Bee melittin signal peptide (N); made in house; host or cells: High 5 insect cells (baculovirus; virus raised in Sf9)
# Sequence (Q04756 373-655): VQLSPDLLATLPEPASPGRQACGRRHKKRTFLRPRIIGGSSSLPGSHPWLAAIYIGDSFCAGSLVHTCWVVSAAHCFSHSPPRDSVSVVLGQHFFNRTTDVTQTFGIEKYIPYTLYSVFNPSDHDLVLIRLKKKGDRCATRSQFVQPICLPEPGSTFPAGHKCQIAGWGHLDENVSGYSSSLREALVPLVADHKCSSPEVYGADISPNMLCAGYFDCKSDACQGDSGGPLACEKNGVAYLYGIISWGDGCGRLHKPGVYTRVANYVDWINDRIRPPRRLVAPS
# Measurement Notes: Fluorescent kinetic enzyme inhibitor assay of HGFA
# Type: biochemical
# Test Parameters: Table 4.2; Boc-QLR-AMC substrate; read-out: HGFA Ki

stdin: Enter reported Ki observed with HGFA (Homo sapiens, UniProt Q04756) for CC(=O)N[C@@H](CO)C(=O)N[C@@H](CCC(N)=O)C(=O)N[C@@H](CC(C)C)C(=O)N[C@@H](CCCNC(=N)N)C(=O)c1nccs1 [Compound 5f, Ac-SQLR(SEQ ID NO: 7)-kt]
stdout: 182 nM

stdin: Reported Ki for HGFA (Homo sapiens, UniProt Q04756), given CC(=O)N[C@@H](CO)C(=O)N[C@@H](CCCNC(=N)N)C(=O)N[C@@H](CC(C)C)C(=O)N[C@@H](CCCNC(=N)N)C(=O)c1nccs1 [Compound 6e, Ac-SRLR(SEQ ID NO: 15)-kt] ?
stdout: 24 nM

stdin: # returns recorded Ki (system: HGFA (Homo sapiens, UniProt Q04756)) for CC(=O)N[C@@H](Cc1c[nH]c2ccccc12)C(=O)N[C@@H](CCCNC(=N)N)C(=O)N[C@@H](CC(C)C)C(=O)N[C@@H](CCCNC(=N)N)C(=O)c1nccs1 [Compound 5h, Ac-WRLR(SEQ ID NO: 9)-kt]
stdout: 21 nM

stdin: Write down the reported Ki of CC(=O)N[C@@H](CC(C)C)C(=O)N[C@@H](CC(C)C)C(=O)N[C@@H](CCCNC(=N)N)C(=O)c1nccs1 [Ac-LLR-kt] , test system: HGFA (Homo sapiens, UniProt Q04756).
stdout: 253 nM

stdin: Any idea what Ki came out for CC(=O)N[C@@H](CCCNC(=N)N)C(=O)N[C@@H](CCCCN)C(=O)N[C@@H](CC(C)C)C(=O)N[C@@H](CCCNC(=N)N)C(=O)c1nccs1 [Compound 6h, Ac-RKLR(SEQ ID NO: 18)-kt] on HGFA (Homo sapiens, UniProt Q04756)?
stdout: 17 nM
